- MEASURED ON: human Gcp-2 (human, UniProt P80162 38-114, limits assumed)
- MEASUREMENT NOTES: ELISA, hybridoma supernatant
REPORTED PROPERTY: binding result

BINDER	REPORTED PROPERTY	REPORTED
6I5 (antibody, IgG1, V domains shown, IgG1; ATCC PTA-3986; also called 615; 6I5.1) VH: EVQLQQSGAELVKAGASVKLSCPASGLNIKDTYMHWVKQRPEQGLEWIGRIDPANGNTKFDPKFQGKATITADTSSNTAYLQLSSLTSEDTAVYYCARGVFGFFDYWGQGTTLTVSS VL: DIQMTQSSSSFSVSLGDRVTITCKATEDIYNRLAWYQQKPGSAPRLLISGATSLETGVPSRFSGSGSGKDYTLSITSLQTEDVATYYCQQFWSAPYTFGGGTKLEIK	binding result	no binding
6D21 (antibody, IgG1, V domains shown, IgG1; ATCC PTA-3989; also called 6D21.1) VH: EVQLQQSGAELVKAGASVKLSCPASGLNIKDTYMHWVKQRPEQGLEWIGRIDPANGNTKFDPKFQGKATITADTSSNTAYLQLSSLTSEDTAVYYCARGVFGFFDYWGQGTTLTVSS VL: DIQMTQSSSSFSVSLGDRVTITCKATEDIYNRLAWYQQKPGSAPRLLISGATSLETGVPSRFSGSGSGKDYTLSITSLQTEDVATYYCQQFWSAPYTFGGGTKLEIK	binding result	no binding
4N4 (antibody, IgG1, V domains shown, IgG1; ATCC PTA-3994; also called 4N4.1) VH: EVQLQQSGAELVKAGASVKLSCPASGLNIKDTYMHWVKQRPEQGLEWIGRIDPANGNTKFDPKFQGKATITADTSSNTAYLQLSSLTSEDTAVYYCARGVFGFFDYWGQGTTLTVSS VL: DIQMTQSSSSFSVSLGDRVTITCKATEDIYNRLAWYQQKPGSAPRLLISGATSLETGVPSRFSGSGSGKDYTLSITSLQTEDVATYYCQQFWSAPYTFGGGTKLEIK	binding result	no binding
